Target chain: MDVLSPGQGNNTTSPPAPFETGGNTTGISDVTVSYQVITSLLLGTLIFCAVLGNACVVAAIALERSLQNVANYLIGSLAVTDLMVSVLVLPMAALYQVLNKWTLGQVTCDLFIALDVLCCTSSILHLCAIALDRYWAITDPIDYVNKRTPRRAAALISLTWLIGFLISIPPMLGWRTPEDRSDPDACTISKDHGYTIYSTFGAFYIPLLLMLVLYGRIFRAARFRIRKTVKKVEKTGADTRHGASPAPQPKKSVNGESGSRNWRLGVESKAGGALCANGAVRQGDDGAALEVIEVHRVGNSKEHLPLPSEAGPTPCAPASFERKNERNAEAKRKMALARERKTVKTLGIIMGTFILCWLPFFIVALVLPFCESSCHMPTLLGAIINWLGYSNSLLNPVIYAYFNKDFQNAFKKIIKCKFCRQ
// reported Ki per item
Numeric answer only, unit nM assumed.

Note Ki for the compound shown: CC1(c2ccc(F)cc2)NC(=O)N(CC(O)CN2CCN(c3ccccc3F)CC2)C1=O (stereo unspecified) 1650

Note Ki for the compound shown: CC1(c2ccc(F)cc2)NC(=O)N(CC(O)CN2CCN(c3ccccc3C#N)CC2)C1=O (stereo unspecified) 319

Note Ki for the compound shown: CC1(c2ccc(F)cc2)NC(=O)N(CC(O)CN2CCN(c3ccc(F)cc3)CC2)C1=O (stereo unspecified) 6860

Note Ki for the compound shown: CC1(c2ccc(F)cc2)NC(=O)N(CC(O)CN2CCN(c3ccc(F)cc3F)CC2)C1=O (stereo unspecified) 9170

Note Ki for the compound shown: CC1(c2ccc(F)cc2)NC(=O)N(CC(O)CN2CCN(c3ccc(Cl)c(Cl)c3)CC2)C1=O (stereo unspecified) 821

Note Ki for the compound shown: CC1(c2ccc(F)cc2)NC(=O)N(CC(O)CN2CCN(c3cccc(Cl)c3Cl)CC2)C1=O (stereo unspecified) 59

----------
// reported Ratio Ki per item
species on record: Homo sapiens; assay: Selectivity ratio of Ki for human 5-HT1A receptor to Ki for human 5-HT7 receptor
// return a plain number; no unit text

Note Ratio Ki for the molecule shown: CC1(c2ccc(F)cc2)NC(=O)N(CC(O)CN2CCN(c3ccc(Cl)c(Cl)c3)CC2)C1=O (centres undefined) 6

----------
molecular target: D(2) dopamine receptor (Homo sapiens, UniProt P14416)
Sequence (P14416 whole entry): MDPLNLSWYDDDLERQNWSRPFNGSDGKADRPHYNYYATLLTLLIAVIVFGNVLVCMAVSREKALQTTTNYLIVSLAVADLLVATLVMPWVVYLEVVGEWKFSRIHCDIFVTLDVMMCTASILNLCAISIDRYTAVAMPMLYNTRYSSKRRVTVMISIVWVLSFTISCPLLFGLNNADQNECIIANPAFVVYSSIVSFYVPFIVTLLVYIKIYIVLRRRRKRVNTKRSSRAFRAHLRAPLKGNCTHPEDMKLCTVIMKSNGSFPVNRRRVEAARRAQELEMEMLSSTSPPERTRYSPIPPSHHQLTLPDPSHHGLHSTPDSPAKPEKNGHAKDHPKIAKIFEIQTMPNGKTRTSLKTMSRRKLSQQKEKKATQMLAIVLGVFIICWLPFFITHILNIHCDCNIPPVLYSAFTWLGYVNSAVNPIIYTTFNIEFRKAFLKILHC
READOUT_NAME: pKi
// pKi here means minus log10 of the molar concentration (mol/L)

# MOLECULE, TARGET_ENTITY, REPORTED
rows = [
    ("CC1(c2ccc(F)cc2)NC(=O)N(CC(O)CN2CCN(c3ccc(F)cc3)CC2)C1=O (centres undefined)", "D(2) dopamine receptor (Homo sapiens, UniProt P14416)", 5.25),
    ("CC1(c2ccc(F)cc2)NC(=O)N(CC(O)CN2CCN(c3ccc(Cl)c(Cl)c3)CC2)C1=O (centres undefined)", "D(2) dopamine receptor (Homo sapiens, UniProt P14416)", 5.70),
    ("CC1(c2ccc(F)cc2)NC(=O)N(CC(O)CN2CCN(c3ccccc3F)CC2)C1=O (centres undefined)", "D(2) dopamine receptor (Homo sapiens, UniProt P14416)", 5.77),
    ("CC1(c2ccc(F)cc2)NC(=O)N(CC(O)CN2CCN(c3ccccc3Cl)CC2)C1=O (centres undefined)", "D(2) dopamine receptor (Homo sapiens, UniProt P14416)", 6.08),
    ("Cc1ccc(C)c(N2CCN(CC(O)CN3C(=O)NC(C)(c4ccc(F)cc4)C3=O)CC2)c1 (centres undefined)", "D(2) dopamine receptor (Homo sapiens, UniProt P14416)", 5.74),
]

Note pKi for the molecule shown: CCOc1ccccc1N1CCN(CC(O)CN2C(=O)NC(C)(c3ccc(F)cc3)C2=O)CC1 (centres undefined) 6.90

Note pKi for the molecule shown: CC1(c2ccc(F)cc2)NC(=O)N(CC(O)CN2CCN(c3ccccc3)CC2)C1=O (centres undefined) 5.54

Note pKi for the molecule shown: CC1(c2ccc(F)cc2)NC(=O)N(CC(O)CN2CCN(c3ccccc3C#N)CC2)C1=O (centres undefined) 6.03

Note pKi for the molecule shown: Cc1ccc(N2CCN(CC(O)CN3C(=O)NC(C)(c4ccc(F)cc4)C3=O)CC2)cc1C (centres undefined) 5.65
